- System: leukemia P388
- assay-method-text: NCI studies against leukemia P388 (Appendix 1, MDA and T/C)
- Format: in vivo, murine
- cond: Mus musculus, P388; minor active dose reaching T/C≥120
- From the text: […]
reported-property: log10 of minimal effective dose (log10 of the value in mg/kg)

[[record]]
compound = "Nc1cc2c3c(cccc3c1)C(=O)N(CCN1CCCC1)C2=O [Example 11]"
reported_property = "log10 of minimal effective dose"
assay_value = 0.81

[[record]]
compound = "CC(=O)Nc1cc2c3c(cccc3c1)C(=O)N(CCN1CCCC1)C2=O [Example 31]"
reported_property = "log10 of minimal effective dose"
assay_value = 1.48

[[record]]
compound = "COc1cc2c3c(cccc3c1)C(=O)N(CCN(C)C)C2=O [Example 26]"
reported_property = "log10 of minimal effective dose"
assay_value = 1.28

[[record]]
compound = "O=C1c2cccc3cc(O)cc(c23)C(=O)N1CCN1CCOCC1 [Example 24]"
reported_property = "log10 of minimal effective dose"
assay_value = 2.38

[[record]]
compound = "CCN(CC)CCN1C(=O)c2cccc3cc(N)cc(c23)C1=O [Example 10]"
reported_property = "log10 of minimal effective dose"
assay_value = 0.51


====

- Test system: leukemia P388
- assay-method-text: NCI studies against leukemia P388 (Appendix 1, MDA and T/C)
- Type: in vivo, murine
- cond: at the dose of the same line of the appendix table
reported-property: STATUS (activity against leukemia P388)

[[record]]
smiles_string = "CC(=O)Nc1cc2c3c(cccc3c1)C(=O)N(CCN1CCCC1)C2=O"
reported_property = "STATUS (activity against leukemia P388)"
assay_value = "T/C > 120 active"

[[record]]
smiles_string = "CCOC(=O)Nc1cc2c3c(cccc3c1)C(=O)N(CCN(C)C)C2=O"
reported_property = "STATUS (activity against leukemia P388)"
assay_value = "T/C > 120 active"

[[record]]
smiles_string = "COc1cc2c3c(cccc3c1)C(=O)N(CCN1CCCC1)C2=O"
reported_property = "STATUS (activity against leukemia P388)"
assay_value = "None dose tested"

[[record]]
smiles_string = "Nc1cc2c3c(cccc3c1)C(=O)N(CCN1CCOCC1)C2=O"
reported_property = "STATUS (activity against leukemia P388)"
assay_value = "None dose tested"

[[record]]
smiles_string = "CCN(CC)CCCN1C(=O)c2cccc3cc([N+](=O)[O-])cc(c23)C1=O"
reported_property = "STATUS (activity against leukemia P388)"
assay_value = "None dose tested"

[[record]]
smiles_string = "CC(=O)Nc1cc2c3c(cccc3c1)C(=O)N(CCN(C)C)C2=O"
reported_property = "STATUS (activity against leukemia P388)"
assay_value = "T/C > 120 active"

[[record]]
smiles_string = "Nc1cc2c3c(cccc3c1)C(=O)N(CCN1CCCC1)C2=O"
reported_property = "STATUS (activity against leukemia P388)"
assay_value = "T/C > 120 active"

[[record]]
smiles_string = "COc1cc2c3c(cccc3c1)C(=O)N(CCN(C)C)C2=O"
reported_property = "STATUS (activity against leukemia P388)"
assay_value = "T/C > 120 active"

[[record]]
smiles_string = "O=C1c2cccc3cc(O)cc(c23)C(=O)N1CCN1CCOCC1"
reported_property = "STATUS (activity against leukemia P388)"
assay_value = "T/C > 120 active"

[[record]]
smiles_string = "Nc1cc2c3c(cccc3c1)C(=O)N(CCN1CCCCC1)C2=O"
reported_property = "STATUS (activity against leukemia P388)"
assay_value = "None dose tested"

[[record]]
smiles_string = "CN(C)CCN1C(=O)c2cccc3cc(N)cc(c23)C1=O"
reported_property = "STATUS (activity against leukemia P388)"
assay_value = "T/C > 120 active"

[[record]]
smiles_string = "CCN(CC)CCN1C(=O)c2cccc3cc(N)cc(c23)C1=O"
reported_property = "STATUS (activity against leukemia P388)"
assay_value = "T/C > 120 active"

[[record]]
smiles_string = "O=C1c2cccc3cc([N+](=O)[O-])cc(c23)C(=O)N1CCN1CCOCC1"
reported_property = "STATUS (activity against leukemia P388)"
assay_value = "None dose tested"

[[record]]
smiles_string = "CCOC(=O)Nc1cc2c3c(cccc3c1)C(=O)N(CCN1CCCC1)C2=O"
reported_property = "STATUS (activity against leukemia P388)"
assay_value = "T/C > 120 active"


FYI, the data here is from patent US5183821A.
